These entries and their values trace back to patent US20190233498A1.

- System Name: T1, human PACAP38 (human, not fully specified; C-terminal lysine is amidated; N-terminal or C-terminal biotin in the HTRF and PC-12 cell binding assays)
- T1 construct: synthetic peptide, bought; also called huPACAP (1-38)
- T1 peptide: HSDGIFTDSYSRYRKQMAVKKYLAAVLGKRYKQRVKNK
- Experiment Summary: SPR, Ab immobilised
Readout Label: Kd

Prompt: What measured Kd goes with anti-PACAP antibody Ab18 (antibody, human IgG1, kappa, N297A, V domains shown, full-length rabbit/human chimeric antibody) VH: QSVEESGGRLVTPGTPLTLTCTVSGFSLSSAALSWVRQAPGKGLEWIGIIDKGVMSYYASWAKGRFTISKTSSTTVDLKVTSPTTEDTATYFCARGGGEFFIWGQGTLVTVSS VL: AQVLTQTPSSVSAAVGGTVTINCQSSKSVYNNNWLSWYQQKPGQPPKFLIYQASNLASGVPSRFKGSGSGTQFTLTISDLECDDAATYYCAGGYSGNIVGFGGGTEVVVKR ?
Response: ≤ 23 pM

Prompt: Param item: anti-PACAP antibody Ab14 (antibody, human IgG1, kappa, N297A, V domains shown, full-length rabbit/human chimeric antibody) VH: QSVEASGGRLVTPGTPLTLTCTVSGFSLSSAAMNWVRQAPGKGLEWIGFIEYSKNIVYASWAKGRFTISKVSSTTVDLKMTSPTTEDTATYFCARGGGEFFIWGQGTLVTVSS VL: AQVLTQTPSSVSAAVGGTVTINCQSSQSVYSNNRLSYYQQKPGQPPKLLIYEASSLAYGVPSRFKGSGSGTQFTLTISDLECDDAATYYCAGAYSNSIYSFGGGTEVVVKR
Response: ≤ 31 pM

Prompt: What about this binder? anti-PACAP antibody Ab16 (antibody, human IgG1, kappa, N297A, V domains shown, full-length rabbit/human chimeric antibody) VH: QSVEESGGRLVTPGTPLTLTCTVSGFSLSSAAMSWVRQAPGKGLEWIGIIDDSGNTYYASWAKARFTISKTSSTTVDLKMTSPTTEDTATYFCARGGGEFFIWGPGTLVTVSS VL: DPVLTQTPSSVSAAVGGTVTINCQSSQSVYNNKWLSWYQQKPGQSPKFLIYQASNLASGVPSRFKGSGSGTQFTLTISDLECDDGATYYCAGGYRGNVCGFGGGTEVVVKR
Response: ≤ 11 pM

Prompt: Entry anti-PACAP antibody Ab12.H (antibody, human IgG1, kappa, N297A, V domains shown, humanized form of Ab12, full length) VH: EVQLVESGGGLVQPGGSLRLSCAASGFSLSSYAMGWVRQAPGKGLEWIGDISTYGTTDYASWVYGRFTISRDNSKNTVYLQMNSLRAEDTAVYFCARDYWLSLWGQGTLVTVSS VL: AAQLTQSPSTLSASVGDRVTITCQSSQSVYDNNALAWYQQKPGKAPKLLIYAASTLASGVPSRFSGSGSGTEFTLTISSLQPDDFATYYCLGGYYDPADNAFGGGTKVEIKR please
Response: ≤ 26 pM

Prompt: Param item: anti-PACAP antibody Ab22 (antibody, human IgG1, kappa, N297A, V domains shown, full-length rabbit/human chimeric antibody; PACAP38 specific) VH: QEQLVESGGGLVQPEGSLTLTCTASGFDFSSNAMCWVRQAPGKGLEWIGSIYNADGKNYYAIWAKGRFTISRTSSTTVTLQMTSLTAADTATYFCARDFDLWGQGTLVTVSS VL: AAVLTQTPSPVSAAVGGTVTINCQSSQSVYDNDWLAWFQQKPGQPPKLLIYLTSTLASGVPSRFSGSGSGTQFTLTISGVQCDDAATYYCLGGYDEDGDTHVFGGGTEVVVKR
Response: ≤ 27 pM
